Source listed as patent US20250296929A1.

Protocol details: Liver distribution after 8 mg/kg oral dose (liver vs plasma)
Assay type: in vivo, CD1 mice
Recorded conditions: CD1, mouse, liver/plasma, oral, 8 mg/kg, 0.5 h, mean, read-out: Ratio (liver/plasma) Mean
Procedure: Protocol for pharmacokinetic and tissue distribution studies. The pharmacokinetics of the compounds was studied in CD1 mice after intravenous (IV) and oral gavage (PO) administration. Mouse PK studies was conducted at 3 mg/kg (IV) and 8 mg/kg (PO). […] Pharmacokinetic parameters will be calculated using established non-compartmental methods. […]
Metric name: Kp at 0.5 h
Form field (numeric): enter value without unit.

Entry "COc1cc2c(cc1OCCCCCCC(=O)O)C[C@@H](C(C)C)n1cc(C(=O)O)c(=O)cc1-2" ; Kp at 0.5 h = 32.9

###

Protocol details: Pharmacokinetics after 3 mg/kg IV administration, plasma
Type: in vivo, CD1 mice
Recorded conditions: CD1, mouse, plasma, iv, 3 mg/kg, individual mice
Metric name: AUC(0-t) (ng·h/mL)
Give the value in ng·h/mL but do not write ng·h/mL after it.

Entry COc1cc2c(cc1OCCCCCCC(=O)O)C[C@@H](C(C)C)n1cc(C(=O)O)c(=O)cc1-2 [Example 6] ; AUC(0-t) = 263

###

Protocol details: Pharmacokinetics after 3 mg/kg IV administration, plasma
Format: in vivo, CD1 mice
Recorded conditions: CD1, mouse, plasma, intravenous, 3 mg/kg, 8 h, individual mice
Procedure: Protocol for pharmacokinetic and tissue distribution studies. The pharmacokinetics of the compounds was studied in CD1 mice after intravenous (IV) and oral gavage (PO) administration. Mouse PK studies was conducted at 3 mg/kg (IV) and 8 mg/kg (PO). […] Pharmacokinetic parameters will be calculated using established non-compartmental methods. […]
Metric name: concentration at 8 h (ng/mL)
Give the value in ng/mL but do not write ng/mL after it.

Entry COc1cc2c(cc1OCCCCCCC(=O)O)C[C@@H](C(C)C)n1cc(C(=O)O)c(=O)cc1-2 [Example 6] ; concentration at 8 h = 1.08

###

Protocol details: Pharmacokinetics after 3 mg/kg IV administration, plasma
Type: in vivo, CD1 mice
Recorded conditions: CD1, mouse, plasma, intravenous, 3 mg/kg, 0.5 h, individual mice, read-out: Plasma concentration
Metric name: concentration at 0.5 h
Number first, unit second.

Entry "COc1cc2c(cc1OCCCCCCC(=O)O)C[C@@H](C(C)C)n1cc(C(=O)O)c(=O)cc1-2" ; concentration at 0.5 h = 32.8 ng/mL

###

Protocol details: Pharmacokinetics after 8 mg/kg oral (PO) administration, plasma
Assay type: in vivo, CD1 mice
Recorded conditions: CD1, mouse, plasma, oral, 8 mg/kg, 8 mg/kg oral, 4 h, individual animals; read-out: Plasma concentration
Metric name: concentration at 4 h

Entry "COc1cc2c(cc1OCCCCCCC(=O)O)C[C@@H](C(C)C)n1cc(C(=O)O)c(=O)cc1-2" ; concentration at 4 h = 3.68 ng/mL

###

Protocol details: Liver distribution after 8 mg/kg oral dose (liver vs plasma)
Type: in vivo, CD1 mice
Recorded conditions: CD1, mouse, liver, oral, 8 mg/kg, 0.5 h, individual animals
Metric name: concentration at 0.5 h

Entry "COc1cc2c(cc1OCCCCCCC(=O)O)C[C@@H](C(C)C)n1cc(C(=O)O)c(=O)cc1-2" ; concentration at 0.5 h = 366 ng/g

###

Protocol details: Pharmacokinetics after 8 mg/kg oral (PO) administration, plasma
Type: in vivo, CD1 mice
Recorded conditions: CD1, mouse, plasma, oral, 8 mg/kg, 8 mg/kg oral, 1 h, mean
Metric name: concentration at 1 h (ng/mL)
Give the value in ng/mL but do not write ng/mL after it.

Entry COc1cc2c(cc1OCCCCCCC(=O)O)C[C@@H](C(C)C)n1cc(C(=O)O)c(=O)cc1-2 [Example 6] ; concentration at 1 h = 6.44

###

Protocol details: Liver distribution after 8 mg/kg oral dose (liver vs plasma)
Type: in vivo, CD1 mice
Recorded conditions: CD1, mouse, liver/plasma, oral, 8 mg/kg, 8 h, individual animals, read-out: Ratio (liver/plasma)
Metric name: Kp at 8 h
Form field (numeric): enter value without unit.

Entry "COc1cc2c(cc1OCCCCCCC(=O)O)C[C@@H](C(C)C)n1cc(C(=O)O)c(=O)cc1-2" ; Kp at 8 h = 15.9

###

Protocol details: Pharmacokinetics after 3 mg/kg IV administration, plasma
Assay type: in vivo, CD1 mice
Recorded conditions: CD1, mouse, plasma, intravenous, 3 mg/kg, 1 h, mean, read-out: Mean plasma concentration
Metric name: concentration at 1 h (ng/mL)
Give the value in ng/mL but do not write ng/mL after it.

Entry COc1cc2c(cc1OCCCCCCC(=O)O)C[C@@H](C(C)C)n1cc(C(=O)O)c(=O)cc1-2 [Example 6] ; concentration at 1 h = 8.9

###

Protocol details: Pharmacokinetics after 3 mg/kg IV administration, plasma
Assay type: in vivo, CD1 mice
Recorded conditions: CD1, mouse, plasma, iv, 3 mg/kg, individual mice
Metric name: AUC(0-inf) (ng·h/mL)
Give the value in ng·h/mL but do not write ng·h/mL after it.

Entry "COc1cc2c(cc1OCCCCCCC(=O)O)C[C@@H](C(C)C)n1cc(C(=O)O)c(=O)cc1-2" ; AUC(0-inf) = 268

###

Protocol details: Liver distribution after 8 mg/kg oral dose (liver vs plasma)
Type: in vivo, CD1 mice
Recorded conditions: CD1, mouse, liver, oral, 8 mg/kg, 4 h, individual animals
Metric name: concentration at 4 h (ng/g)
Give the value in ng/g but do not write ng/g after it.

Entry "COc1cc2c(cc1OCCCCCCC(=O)O)C[C@@H](C(C)C)n1cc(C(=O)O)c(=O)cc1-2" ; concentration at 4 h = 106

###

Protocol details: Pharmacokinetics after 3 mg/kg IV administration, plasma
Type: in vivo, CD1 mice
Recorded conditions: CD1, mouse, plasma, iv, 3 mg/kg, mean, read-out: MRTInf —obs
Metric name: MRT inf (min)
Give the value in min but do not write min after it.

Entry COc1cc2c(cc1OCCCCCCC(=O)O)C[C@@H](C(C)C)n1cc(C(=O)O)c(=O)cc1-2 [Example 6] ; MRT inf = 17.2
